Assay: yeast display, Sf9 membrane polyspecificity reagent, FACS + sequencing; frameworks hold sequencing errors
observable: polyreactivity (PSR sort gate)

• QDQLVESGGGLVQAGGSLRLSCASSGSTFPWYTMGWSRQAPGKERELVAAIDGSAGDTYYADSVKGRVTISRDNAKNTVYLQMNSLKPEDTAVYYCATRTWRWGYLHYDYWGQGTQVTVSS = low polyreactivity
• QVQLVESGGGLVQAGGSLRLSCAASGRIIRYYAMGWYRPAPGKERELVAGITTGGGSTYYADSVKGRFTISRDNAKNTVYLQMNSLKPEDTAVYYCAARYYTTYYWGQGTQVTVSS = high polyreactivity
• QVQLVESGGGLVQAGGSLRLSCDASGITFQYYAMGWYRQAPGKERELVAAINWRGGTTYYADSVKGRITISRDNAKNTVYLQMNSLIPEDNEVYYCAADYYYQAGFYYWGQGTQVTVSS = low polyreactivity
• QVQLVESGGGLVQAGGSLRLSCAASGFTFPPYAMGWYRQAPGKERELVAAISSAGSTKYADSVKGRFTISRDNAKNTVYLQMNSLKPEDSAVYYCDKKGRTARGRYDYWGQGTQVTVSS = low polyreactivity
• QVQLVESGGGLVQAGGSLRLSCAASGFTFRRNVIGWYRQAPGKERELVAAIRGSDGSTYYADSVKGRFTNSRDNAKNTVYLQMNSLKPEDTAVYYCNVVGIGLYRKMGYWGQGTQVTVSS = high polyreactivity

Input line: Consider the sequence `QVQLVESGGGLVQAGGSLRLSCAASGSTFGRYVMGWYRQAPGKERELVAAISGSGGSTYYADSVKGRFTISRDNAKNTVYLQMNSLKPEDTAVYYCAARVAHYEYYWGQGTQVTVSS` and give its measured polyreactivity (PSR sort gate).
Output line: high polyreactivity

Input line: Consider the sequence `QVQLVESGGGLVQAGGSLRLSCAASGSTFINYAMGWYRQAPGKERELVATISSNGGSTYYADSVKGRFTISRDNAKNTVYLQMNRLKPEDTAVYYCAADGKQYGFYYWGQGTQVTVSS` and give its measured polyreactivity (PSR sort gate).
Output line: low polyreactivity

Input line: Consider the sequence `QVQLVESGGGLVQAGGSLRLSCAASGRTFYTYTMGWYRQAPRKEREFVAAISSSGSSTYYADSVKGRFTISRDNAKNTVYLQMNSLKPEDTAVYYCAATSYSYPGYFRYDYWGQGTQVTVSS` and give its measured polyreactivity (PSR sort gate).
Output line: high polyreactivity

Input line: Consider the sequence `QVQLVESGGGLVQAGGSLRLSCAASGRIIDLNAMGWYRQAPGKERQLVAAISYSGGRTFYADSVKGRFTISRDNAKNTVYLQMNSLKPEDTAVYYCNARYGKPAYQYGMDYWGQGTQVTVSS` and give its measured polyreactivity (PSR sort gate).
Output line: low polyreactivity

Input line: Consider the sequence `QVQLVESGGGLVQAGGSLRLSCAASGIIFQGNAMGWYRQAPGKERELVAAISSGGSTYYADSVKGRFTISRDNAKNTVYLQMNSLKPEDTAVYYCNAGAYVRYDYWGQGTQVTVSS` and give its measured polyreactivity (PSR sort gate).
Output line: low polyreactivity

Input line: Consider the sequence `QVQLVESGGGLVQAGGSLRLSCAASGYTFPFYTMGWYRQAPGKERELVAAINSGGSTYYADSVKGRFTISRDNAKNTVYLQMNSLKPEDTAVYYCGAGRHSEDNYWGQGTQVTVSS` and give its measured polyreactivity (PSR sort gate).
Output line: high polyreactivity

Input line: Consider the sequence `QVQLVESGGGLVQAGGRLRLSCAASGTTFWNNAMGWYRQAPGKERELVPGISRSGGSTYYADSVKGRFTISRDNAKNTVYLQMNSLKPEDTAVYYCNKVNYAKRNYWGQGTQVTVSS` and give its measured polyreactivity (PSR sort gate).
Output line: low polyreactivity

Input line: Consider the sequence `QVLMQESGGGLVQAGGSLRLSCAASGNIFSAGGMGWYRQAPVNERELVAGIGTATSTNYADSVKGRFTFSRDNAKNTVYLQMNSLKREDTAVYYCAAAYYSGLSHWYWGQGTQVTVSS` and give its measured polyreactivity (PSR sort gate).
Output line: low polyreactivity

Input line: Consider the sequence `QVQLVESGGGLVQAGGSLRLSCAASGFIFRWYAMGWYRQAPGKERDLVATISSGGSTYYADSVKGRFTISRDNAMNTFYLQMISLKPEDTAVYYCAARFHYRGALYYYWGQGTQVTVSS` and give its measured polyreactivity (PSR sort gate).
Output line: high polyreactivity

Input line: Consider the sequence `QVQLVESGGGLVQAGGSLRLSCAASGRTFNVYAMGWYRQAPGKETELVAVITNGGSTNYADSVKGRFTISRDNAKNTVYFQMNSLKPEDTAVYYCAAREDLYLYYNGQRVQYDYCGQGTQVTVSS` and give its measured polyreactivity (PSR sort gate).
Output line: low polyreactivity

# credit: the nanobody polyreactivity screen of Harvey et al. (2022)
